Biological target: Dual specificity tyrosine-phosphorylation-regulated kinase 1A (Homo sapiens)
Assay: DYRK1A kinase assay
pEC50: −log10 of the molar value.
The threshold is inclusive: pEC50 of exactly 8 counts as class 1; values below receive class 0.

[[record]]
compound_string = "COc1nc(N[C@H]2CC[C@@](C)(O)CC2)nn2ccc(-c3ccc4nnn(CCF)c4c3)c12"
measured_on = "Dual specificity tyrosine-phosphorylation-regulated kinase 1A (Homo sapiens)"
category = "class 1"

[[record]]
compound_string = "COc1nc(N[C@H]2C[C@@](C)(NC(=O)C3(C#N)CC3)C2)nn2ccc(-c3ccc4nnn(C)c4c3)c12"
measured_on = "Dual specificity tyrosine-phosphorylation-regulated kinase 1A (Homo sapiens)"
category = "class 1"

[[record]]
compound_string = "COc1nc(N[C@H]2C[C@@](C)(NC(C)=O)C2)nn2ccc(-c3ccc4nnn(CCF)c4c3)c12"
measured_on = "Dual specificity tyrosine-phosphorylation-regulated kinase 1A (Homo sapiens)"
category = "class 1"


Say whether `COc1nc(N[C@H]2CC[C@](C)(O)CC2)nn2ccc(-c3ccc4nnn(CCF)c4c3)c12` shows pEC50 of 8 or more.
class 1

Say whether `COc1nc(N[C@H]2CC[C@](C)(O)CC2)nn2cc(F)c(-c3ccc4nnn(C)c4c3)c12` shows pEC50 of 8 or more.
class 1

Say whether `COc1nc(N[C@H]2C[C@@](C)(N)C2)nn2ccc(-c3ccc4ncnn4c3)c12` shows pEC50 of 8 or more.
class 0

Say whether `COc1nc(N[C@H]2C[C@]3(CCN3CC(F)F)C2)nn2ccc(-c3ccc4nccnc4c3)c12` shows pEC50 of 8 or more.
class 1

Say whether `Cn1nnc2ccc(-c3ccn4nc(N[C@H]5CC[C@](C)(O)CC5)nc(OC5COC5)c34)cc21` shows pEC50 of 8 or more.
class 0

Say whether `COc1nc(N[C@H]2C[C@](C)(O)C2)nn2ccc(-c3ccc4nccn4c3)c12` shows pEC50 of 8 or more.
class 1

Say whether `CCn1nnc2ccc(-c3ccn4nc(N[C@H]5CC[C@](C)(O)CC5)nc(OC)c34)cc21` shows pEC50 of 8 or more.
class 1

Say whether `COc1nc(N[C@H]2C[C@@](C)(O)C2)nn2ccc(-c3ccc4nccn4c3)c12` shows pEC50 of 8 or more.
class 1

Source listed as BindingDB's records for patent US20240002391.
